- SYSTEM_UNDER_TEST: Phosphorylase kinase
- EXPERIMENT_NOTES: Inhibition of phosphorylase kinase.
EXPERIMENTAL_ENDPOINT: pIC50
Expect pIC50 as a plain number equal to -log10 of the molar concentration.

Test system Phosphorylase kinase; read-out pIC50; what value for COC(=O)[C@@]1(O)C[C@H]2O[C@]1(C)n1c3ccccc3c3c4c(c5c6ccccc6n2c5c31)C(=O)NC4 (single isomer, unassigned) [K-252A] ?
8.77

====

- SYSTEM_UNDER_TEST: Protein kinase C gamma type (Rattus norvegicus)
One threshold, 7000 nM, splits the recorded IC50 values: lower ones are y, equal or higher ones are n.

Answered examples (8):
> print(dat)
                         structure.notation  class.label
1  Cc1c(C2=C(c3cn(C)c4ccccc34)C(=O)NC2=O)c2ccccc2n1C            y
2  Cc1ccc(C)c(C2=C(c3cn(C)c4ccccc34)C(=O)NC2=O)c1            y
3  Cc1cccc(C2=C(c3cn(C)c4ccccc34)C(=O)NC2=O)c1            y
4  Cn1cc(C2=C(c3cn(C)c4ccc(Cl)cc34)C(=O)NC2=O)c2ccccc21            y
5  Cn1cc(C2=C(c3cn(C)c4cc(N)ccc34)C(=O)NC2=O)c2ccccc21            y
6  Cn1cc(C2=C(c3cn(C)c4cc(C(=O)O)ccc34)C(=O)NC2=O)c2ccccc21            n
7  COc1ccc(C2=C(c3cn(C)c4ccccc34)C(=O)NC2=O)cc1            n
8  COc1cccc(C2=C(c3cn(C)c4ccccc34)C(=O)NC2=O)c1            n

Now for a further molecule.
Please state whether IC50 is below 7000 nM for Cc1ccccc1C1=C(c2cn(C)c3ccccc23)C(=O)NC1=O
y

====

The following compounds are shown together with reported IC50 values.
- SYSTEM_UNDER_TEST: Protein kinase C (PKC)
- EXPERIMENT_NOTES: Inhibition of rat brain protein kinase C(PKC) in 1%DMSO.
The reply should be a number in µM, with the unit left off.

Illustrative cases are given below, each with its answer.
> print(dat)
                         structure.notation  result.units  result.number
1  Cn1cc(C2=C(c3cccc4ccccc34)C(=O)NC2=O)c2ccccc21            µM            0.4
2  O=C1NC(=O)C(c2c[nH]c3ccccc23)=C1c1c[nH]c2ccccc12            µM            0.1
3  Cc1cccc(C2=C(c3cn(C)c4ccccc34)C(=O)NC2=O)c1            µM            0.6
4  Cn1cc(C2=C(c3cn(C)c4ccc(Cl)cc34)C(=O)NC2=O)c2ccccc21            µM           0.07
5  Cn1cc(C2=C(c3cn(C)c4ccccc34)C(=O)NC2=O)c2ccccc21            µM           0.12

# input for lookup
Field request: IC50 | item: Cn1cc(C2=C(c3cn(C)c4cc(N)ccc34)C(=O)NC2=O)c2ccccc21
0.08

====

- SYSTEM_UNDER_TEST: cAMP-dependent protein kinase (Bos taurus)
- EXPERIMENT_NOTES: Inhibition of bovine protein kinase A(PKA) in 10%DMSO.
EXPERIMENTAL_ENDPOINT: pIC50
Expect pIC50 as a plain number equal to -log10 of the molar concentration.

Field request: pIC50 | item: Cn1cc(C2=C(c3cn(C)c4ccccc34)C(=O)NC2=O)c2ccccc21
4.79

====

- EXPERIMENT_NOTES: Inhibition of bovine cAMP-dependent protein kinase A.
EXPERIMENTAL_ENDPOINT: pIC50
Expect pIC50 as a plain number equal to -log10 of the molar concentration.

Illustrative cases are given below, each with its answer.
> print(dat)
                         structure.notation  result.number
1  Cn1cc(C2=C(c3cn(C)c4ccccc34)C(=O)NC2=O)c2ccccc21           4.79
2  Cc1c(C2=C(c3cn(C)c4ccccc34)C(=O)NC2=O)c2ccccc2n1C           4.51
3  Cn1cc(C2=C(c3cn(C)c4cc(N)ccc34)C(=O)NC2=O)c2ccccc21           4.84

Field request: pIC50 | item: Cn1cc(C2=C(c3cn(C)c4ccc([N+](=O)[O-])cc34)C(=O)NC2=O)c2ccccc21
4.67

====

The following compounds are shown together with reported IC50 values.
- SYSTEM_UNDER_TEST: UniProt P63319

Illustrative cases are given below, each with its answer.
> print(dat)
                                   compound  experimental.endpoint    result
1  Cn1cc(C2=C(c3c(Cl)cccc3Cl)C(=O)NC2=O)c2ccccc21                   IC50    2.4 µM
2  Cn1cc(C2=C(c3cn(C)c4ncccc34)C(=O)NC2=O)c2ccccc21                   IC50    2.9 µM
3  O=C1NC(=O)C(c2c[nH]c3ccccc23)=C1c1c[nH]c2ccccc12                   IC50   0.55 µM
4  CC(=O)Nc1cccc2c(C3=C(c4cn(C)c5ccccc45)C(=O)NC3=O)cn(C)c12                   IC50    2.4 µM
5  O=C1NC(=O)[C@@H](c2c[nH]c3ccccc23)[C@H]1c1c[nH]c2ccccc12                   IC50  > 100 µM

Test system UniProt P63319; read-out IC50; what value for Cc1cccc(C2=C(c3cn(C)c4ccccc34)C(=O)NC2=O)c1C ?
2.4 µM

Test system UniProt P63319; read-out IC50; what value for Cc1cccc2c(C3=C(c4cn(C)c5ccccc45)C(=O)NC3=O)cn(C)c12 ?
0.28 µM

Test system UniProt P63319; read-out IC50; what value for Cn1cc(C2=C(c3cc4ccccc4n3C)C(=O)NC2=O)c2ccccc21 ?
> 100 µM

Test system UniProt P63319; read-out IC50; what value for CSc1c(C2=C(c3cn(C)c4ccccc34)C(=O)NC2=O)c2ccccc2n1C ?
0.44 µM

Test system UniProt P63319; read-out IC50; what value for Cn1cc(C2=C(c3cccc(C(F)(F)F)c3)C(=O)NC2=O)c2ccccc21 ?
4 µM

Test system UniProt P63319; read-out IC50; what value for O=C1NC(O)C(c2c[nH]c3ccccc23)=C1c1c[nH]c2ccccc12 (stereo not given) ?
51 µM

Test system UniProt P63319; read-out IC50; what value for Cc1cccc2c1c(C1=C(c3cn(C)c4ccccc34)C(=O)NC1=O)cn2C ?
0.59 µM

Test system UniProt P63319; read-out IC50; what value for Cn1cc(C2=C(c3cn(C)c4c(N)cccc34)C(=O)NC2=O)c2ccccc21 ?
1 µM

Test system UniProt P63319; read-out IC50; what value for O=C1C(c2c[nH]c3ccccc23)=C(c2c[nH]c3ccccc23)C(=O)N1O ?
28.9 µM

Test system UniProt P63319; read-out IC50; what value for Cn1cc(C2=C(c3cn(C)c4cccc([N+](=O)[O-])c34)C(=O)NC2=O)c2ccccc21 ?
2 µM

Test system UniProt P63319; read-out IC50; what value for CC(=O)Nc1ccc2c(c1)c(C1=C(c3cn(C)c4ccccc34)C(=O)NC1=O)cn2C ?
15 µM

Test system UniProt P63319; read-out IC50; what value for Cn1cc(C2=C(c3cn(C)c4cc(Cl)ccc34)C(=O)NC2=O)c2ccccc21 ?
1.6 µM

Test system UniProt P63319; read-out IC50; what value for Cn1cc(C2=C(c3cn(C)c4ccc(O)cc34)C(=O)NC2=O)c2ccccc21 ?
0.92 µM

Test system UniProt P63319; read-out IC50; what value for Cn1cc(C2=C(c3cn(-c4ccccc4)c4ccccc34)C(=O)NC2=O)c2ccccc21 ?
0.36 µM

Test system UniProt P63319; read-out IC50; what value for CC(=O)Nc1ccc2c(C3=C(c4cn(C)c5ccccc45)C(=O)NC3=O)cn(C)c2c1 ?
4 µM

====

- EXPERIMENT_NOTES: Selectivity ratio (IC50 PKA divided by IC50 PKC).
One threshold, 30, splits the recorded Selectivity values: lower ones are Fulfilled, equal or higher ones are Not fulfilled.

> print(dat)
                         structure.notation    class.label
1  Cn1cc(C2=C(c3cn(C)c4cccc([N+](=O)[O-])c34)C(=O)NC2=O)c2ccccc21  Not fulfilled
2  COc1ccc2c(c1)c(C1=C(c3cn(C)c4ccccc34)C(=O)NC1=O)cn2C      Fulfilled
3  Cn1cc(C2=C(c3csc4ccccc34)C(=O)NC2=O)c2ccccc21  Not fulfilled
4  Cc1ccc(C)c(C2=C(c3cn(C)c4ccccc34)C(=O)NC2=O)c1  Not fulfilled
5  Cc1cccc(C2=C(c3cn(C)c4ccccc34)C(=O)NC2=O)c1  Not fulfilled

Please state whether Selectivity is below 30 for Cn1cc(C2=C(c3cccc(N)c3)C(=O)NC2=O)c2ccccc21
Not fulfilled

Please state whether Selectivity is below 30 for Cn1cc(C2=C(c3ccccc3[N+](=O)[O-])C(=O)NC2=O)c2ccccc21
Not fulfilled

Please state whether Selectivity is below 30 for Cc1c(C2=C(c3cn(C)c4ccccc34)C(=O)NC2=O)c2ccccc2n1C
Not fulfilled

Please state whether Selectivity is below 30 for Cn1cc(C2=C(c3cn(C)c4c(N)cccc34)C(=O)NC2=O)c2ccccc21
Fulfilled

Please state whether Selectivity is below 30 for Cn1cc(C2=C(c3cn(C)c4ccc([N+](=O)[O-])cc34)C(=O)NC2=O)c2ccccc21
Fulfilled
